Test system: human monoclonal antibody CRJA
Format: binding
Could you mark each record True if its Binding of CRJA (10 μg/ml) to looped/cyclic peptide (PEPSCAN-ELISA) falls strictly under 100, and False if it equals or exceeds it?

>>> assigned_label("CPPDQLVNLHDFRSD")
"True"
>>> assigned_label("TWNEILPSKGCLRVG")
"False"
>>> assigned_label("GCLRVGGRCHPHVNG")
"False"

Task: is_below(Binding of CRJA (10 μg/ml) to looped/cyclic peptide (PEPSCAN-ELISA), 100) for LRKLVPGFGKAYTIF ?
Output: True

----------
Tested on: human monoclonal antibody CRJA
Type: binding
Note to self: Binding of CRJA (10 μg/ml) to looped/cyclic peptide (PEPSCAN-ELISA) under 100 means T, ties and anything higher get F.

Task: Lab log: compare recorded Binding of CRJA (10 μg/ml) to looped/cyclic peptide (PEPSCAN-ELISA) with 100; is it strictly lower for LKLCGVLGLRLMDGT ?
Output: T

Task: Does KLKLCGVLGLRLMDG have Binding of CRJA (10 μg/ml) to looped/cyclic peptide (PEPSCAN-ELISA) strictly under 100?
Output: T

Task: Given GVLGLRLMDGTWVAM , is recorded Binding of CRJA (10 μg/ml) to looped/cyclic peptide (PEPSCAN-ELISA) strictly lower than 100?
Output: F

Task: Input ERGLYKSLKGACKLK ; condition: Binding of CRJA (10 μg/ml) to looped/cyclic peptide (PEPSCAN-ELISA) strictly below 100. Does it hold?
Output: F

Task: Does the reported Binding of CRJA (10 μg/ml) to looped/cyclic peptide (PEPSCAN-ELISA) of HLRKLVPGFGKAYTI stay below 100?
Output: F

Task: Does the reported Binding of CRJA (10 μg/ml) to looped/cyclic peptide (PEPSCAN-ELISA) of LCGVLGLRLMDGTWV stay below 100?
Output: F

Task: Please determine if SFRRLSHLRKLVPGF is below 100 in terms of Binding of CRJA (10 μg/ml) to looped/cyclic peptide (PEPSCAN-ELISA).
Output: F

Task: Is 100 strictly greater than the sequence's reported Binding of CRJA (10 μg/ml) to looped/cyclic peptide (PEPSCAN-ELISA)? sequence: RSDEIEHLVVEELVR
Output: F

Task: Criterion: Binding of CRJA (10 μg/ml) to looped/cyclic peptide (PEPSCAN-ELISA) strictly below 100. Is it met by LVVEELVRKREECLD ?
Output: T

Task: Take the sequence QLVNLHDFRSDEIEH and say whether its Binding of CRJA (10 μg/ml) to looped/cyclic peptide (PEPSCAN-ELISA) is less than 100.
Output: T

Task: Here's an entry: KSVRTWNEILPSKGC . Is its Binding of CRJA (10 μg/ml) to looped/cyclic peptide (PEPSCAN-ELISA) below 100?
Output: F
